target: Gag-Pol polyprotein (Human immunodeficiency virus type 1 group M subtype B (isolate HXB2)); assay: RNase H inhibition, HIV 1 Gag Pol polyprotein, FRET biochemical assay, screening (AID 372); settings: HIV-1 RT RNase H, FRET RNA/DNA substrate fluorescence; at 10 µM; active compounds read high
Hit rate of the full screen: of about 100,000 compounds, about 770 (0.77%) were called active. This is one part of a sample in which actives are shown more often than they occur.
Consider the following partition of reported inhibition into named classes: low band (below 7%), middle band (7% to below 20%), high band (20% or more)

COc1ccc(Cc2nc3ccccc3c(=O)n2/N=C/c2c[nH]c3ccccc23)cc1OC | high band
COc1ccc(C(=O)NC(=S)Nc2ccc3oc(-c4ccccc4)nc3c2)cc1Br | high band
Cc1ccc(NC(=O)C2CC(=O)N(c3ccc(Br)cc3)C2)cc1Cl (stereo not drawn) | low band
COc1ccccc1CC(=O)Nc1cccc(Br)c1 | high band
COc1ccc(C(=O)NC(NC(=S)Nc2sc3c(c2C(N)=O)CCCC3)C(Cl)(Cl)Cl)cc1 (stereo not drawn) | middle band

[Q] Which class holds COc1cc(C=O)ccc1OCCCCOc1cccc(Oc2ccccc2)c1 ?
[A] high band

[Q] Entry to check: CCOc1ccc(C(=O)NC(=S)Nc2ccc3oc(-c4cccnc4)nc3c2)cc1[N+](=O)[O-]
[A] low band

[Q] # iterate: Cc1ccc(-n2nc3cc(C)c(NC(=O)c4ccccc4Br)cc3n2)cc1
[A] low band

[Q] Would you mind doing CCc1ncc(C(O)c2ccccc2OC)n1C (stereo not drawn) as well?
[A] low band

[Q] Then what about the compound Cc1ccccc1-c1nc2ccccc2c(=O)n1/N=C/c1c[nH]c2ccccc12 ?
[A] middle band

[Q] Another: CC(C)(C)c1ccc(C(=O)NC2CCCC2)cc1
[A] low band

[Q] What about this compound? Cc1cc2nn(-c3ccc(Cl)cc3)nc2cc1NC(=O)c1ccc(Cl)cc1Cl
[A] high band

* * *

target: Gag-Pol polyprotein (Human immunodeficiency virus type 1 group M subtype B (isolate HXB2)) (UniProt P04585); assay: RNase H inhibition, HIV 1 Gag Pol polyprotein, FRET biochemical assay, screening (AID 372); settings: HIV-1 RT RNase H, FRET RNA/DNA substrate fluorescence; at 10 µM
Among all 100,000 compounds or so, about 770 (0.77%) were called active. No stated cut-off is given here; in the data, active means inhibition above about 50%; inactive means the rest. This excerpt belongs to a sample that is enriched for actives.
Write down one outcome, taken from active, inactive

[Q] Entry CC1=C(C(=O)Nc2ccc(C)cc2)C(c2ccc(Br)cc2)NC(=S)N1 (centres undefined) : call = ?
[A] inactive

* * *

target: Gag-Pol polyprotein (Human immunodeficiency virus type 1 group M subtype B (isolate HXB2)); assay: RNase H inhibition, HIV 1 Gag Pol polyprotein, FRET biochemical assay, screening (AID 372); settings: HIV-1 RT RNase H, FRET RNA/DNA substrate fluorescence; at 10 µM
Out of some 100,000 compounds screened, about 770 (0.77%) were called active. Rule as the data show it: active = inhibition above about 50%; inactive = the rest. What follows is part of a selection rich in actives, with near analogues and random picks from the rest.
Response enum: active, inactive

COc1ccc(/C=C2\SC(=NCc3ccccc3)N(Cc3ccccc3)C2=O)cc1C(=O)O | inactive

[Q] Outcome logged for COc1cccc(COc2cc3oc(=O)c4c(c3cc2Cl)CCCC4)c1 in this assay:
[A] inactive

[Q] And the next one, CN(C)c1nc(-c2ccccc2)c2cc(Cl)ccc2n1 ?
[A] inactive

[Q] Could you do the same for O=C1NC(=O)/C(=C\c2ccc(-c3ccc(C(=O)O)cc3)o2)S1 , please?
[A] inactive

[Q] Input O=[N+]([O-])c1ccc(N2CCCC2)c(C(F)(F)F)c1
[A] inactive

[Q] Then what about the compound CS(=O)(=O)N(CC(=O)Nc1cccc2ccccc12)c1cccc(Cl)c1 ?
[A] inactive

[Q] Follow-up item: N#Cc1c(-c2ccc(Br)cc2)cc(-c2ccco2)c(C#N)c1N
[A] active

[Q] Here is the next compound: Cc1cccc(C2C(=O)c3ccccc3C2=O)c1C
[A] inactive

[Q] Okay, and CCc1c(C#N)c(N)nc(SCC(=O)c2ccc(C)cc2)c1C#N ?
[A] inactive

[Q] // next record CCc1c(C#N)c(N)nc(SCC(=O)c2ccc(Cl)c(Cl)c2)c1C#N
[A] inactive

[Q] One more compound: N#Cc1c(-c2ccc(Br)cc2)cc(-c2ccc3c(c2)OCO3)c(C#N)c1N
[A] inactive

[Q] Also check CN(CCO)c1nc(-c2ccccc2)c2cc(Cl)ccc2n1
[A] active

[Q] And then CCN(CC)c1nc(-c2ccccc2)c2cc(Cl)ccc2n1 , what is it?
[A] inactive

[Q] For COc1ccc(/C=C2\SC(=O)N(Cc3ccccc3)C2=O)cc1OC then?
[A] inactive

[Q] Same for O=C(CCN1C(=O)/C(=C/c2ccccc2Cl)SC1=S)Nc1ccc(-c2ccccc2)cc1
[A] inactive

[Q] Queued: O=C1NC(=S)S/C1=C\c1ccc(-c2ccc(Cl)c(C(=O)O)c2)o1
[A] inactive

[Q] Same read-out for O=C1/C(=C/c2ccc(-c3ccc(Cl)cc3C(=O)O)o2)Sc2ccccc21 ?
[A] inactive
